Just for reference, ChEMBL document CHEMBL1139174 is where these values come from.

target: Growth hormone secretagogue receptor type 1 (Homo sapiens, UniProt Q92847); assay: Agonist activity at human GHS-R1; format: functional; settings: read-out: EC50
Sequence (Q92847 whole entry): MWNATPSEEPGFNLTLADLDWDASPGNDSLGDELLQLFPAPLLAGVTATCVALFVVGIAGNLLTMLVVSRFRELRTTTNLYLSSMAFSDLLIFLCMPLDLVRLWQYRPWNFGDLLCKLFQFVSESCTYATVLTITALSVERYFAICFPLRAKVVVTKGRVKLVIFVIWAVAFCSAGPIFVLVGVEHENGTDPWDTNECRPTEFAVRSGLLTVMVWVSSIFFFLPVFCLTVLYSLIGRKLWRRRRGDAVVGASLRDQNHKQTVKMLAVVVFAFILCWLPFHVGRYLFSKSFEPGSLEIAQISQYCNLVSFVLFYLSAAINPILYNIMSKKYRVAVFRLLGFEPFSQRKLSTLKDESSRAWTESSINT
Square brackets hold non-standard residues; d marks the D form. Peptide text beside a SMILES is read from it. d(hPhe) = N[C@H](CCc1ccccc1)C(=O)O; Aib = CC(C)(N)C(=O)O
Reported Property: log10 EC50 (log10 of the value in nM)
Could you please treat all values as log10 of EC50 in nM?

                                   compound  numeric_value
0  NCCNC(=O)[C@@H](Cc1cccc2ccccc12)NC(=O)CCN1C(=O)CCS(=O)(=O)c2ccccc21           1.00
1  Cc1ccccc1N1CCN(C(=O)[C@@H](CCCc2ccccc2)NC(=O)C(C)(C)N)CC1           2.00
2  CCNC(=O)[C@]1(Cc2ccccc2)CCCN(C(=O)[C@@H](Cc2c[nH]c3ccccc23)NC(=O)C(C)(C)N)C1          -0.10

Fill in: log10 EC50 of NCC(O)CNC(=O)[C@@H](Cc1cccc2ccccc12)NC(=O)CCCN1C(=O)CCSc2ccccc21 (stereo partly drawn) is ___
0.00

How about this compound: "CCOC(=O)[C@]1(Cc2ccccc2)CCCN(C(=O)[C@@H](Cc2c[nH]c3ccccc23)NC(=O)C(C)(C)N)C1"
0.20

How about this compound: "CCN(CC)CCN1C(=O)[C@@](O)(c2ccc3ccccc3c2)c2c1cc(C#CCCC(=O)N1CCOCC1)cc2C(F)(F)F"
1.48

How about this compound: CCOC(=O)[C@@H](CCc1ccccc1)NC(=O)[C@@H](Cc1c[nH]c2ccccc12)NC(=O)C(C)(C)N (H-[Aib]-[dW]-[d(hPhe)]-OEt)
0.48

How about this compound: "O=C(N[C@H](Cc1ccc2ccccc2c1)C(=O)N[C@@H](CO)Cc1ccc2ccccc2c1)C1CCNCC1"
0.26
